Assay: NCI Yeast Anticancer Drug Screen. Data for the rad50 strain (AID 155);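 further: 0% = growth of vehicle-only cultures of the same strain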
Conditions: S. cerevisiae rad50 strain growth inhibition; at 50.0 µM; stronger effect = higher value
Compounds without any hit were thinned out: in the full panel of roughly 79,000, 15% have a hit.

# COMPOUND, READING_UNIT, growth inhibition
measured = [
    ("Cc1ccc(Br)c2c1CCC2=O", "%", 1.85),
    ("Clc1ccc(CSC2=NCCN2)cc1Cl", "%", -17),
    ("C/C(N)=N/C(=O)OCCOC(=O)/N=C(\\C)N", "%", -2.25),
    ("O=C(N/N=C/c1cccc(C(F)(F)F)c1)c1ccncc1", "%", 12.8),
    ("COc1c(OC(C)=O)cc(Cl)c(C=O)c1[N+](=O)[O-]", "%", 5.25),
    ("Cc1cc2c(cc1C)NC(=O)CC(=O)N2", "%", -3.45),
    ("CSCCC(NC(=O)CCCOc1ccc(Cl)cc1C)C(=O)O (configuration not stated)", "%", 1.8),
    ("Cc1cc(C)c2c(=O)c3c(oc2c1)O[C@@](C)(CO)C[C@@H]3c1ccccc1", "%", 1.15),
    ("O=C(O)c1cccc([N+](=O)[O-])c1C(=O)O", "%", 15.3),
    ("CCN(CC)CC(O)CN1CCCc2ccccc21 (configuration not stated)", "%", -9.4),
    ("CCOC(=O)c1nc2ccccc2c(=O)n1NC(=S)Nc1ccc(Cl)cc1", "%", -40.4),
    ("Nc1nc2c(ncn2C2OCC(O)C(O)C2O)c(=O)[nH]1 (configuration not stated)", "%", 15.6),
]

Cited source: PubChem BioAssay (NCI)
